# Tested on: K. pneumonia
# ASSAY EXPLANATION: Agar diffusion method, inhibition zone diameter
# Format: cell-based, Klebsiella pneumonia
# CONDITION DETAILS: Gram-negative
Below, each entry is listed alongside its reported IZD K. pneumonia.
Unit mm implied. Number only.

Some compounds with recorded IZD K. pneumonia:
compound=O=C(Cc1nc2ccccc2s1)Nc1ccc(Cl)cc1 tested_system="K. pneumonia" result_number=35
compound="CNC(C)C1CCC(N)C(OC2C(N)CC(N)C(OC3OCC(C)(O)C(NC)C3O)C2O)O1 (stereo not shown) [Gentamicin, reference compound]" tested_system="K. pneumonia" result_number=29
compound=O=C(Cc1nc2ccccc2s1)Nc1ccccc1 tested_system="K. pneumonia" result_number=34

// sample "O=C(Nc1ccccc1)C(=Cc1cn(-c2ccccc2)nc1-c1ccccc1)c1nc2ccccc2s1" , its IZD K. pneumonia was 20

// sample "COc1ccc(C=C(C(=O)Nc2ccc(Cl)cc2)c2nc3ccccc3s2)cc1OC" , its IZD K. pneumonia was 25

// sample COc1ccc(-c2c(C#N)c(N)n(-c3ccc(C)cc3)c(=O)c2-c2nc3ccccc3s2)cc1 [11d] , its IZD K. pneumonia was 23

// sample "O=C(Nc1ccc(Cl)cc1)C(=Cc1ccccc1)c1nc2ccccc2s1" , its IZD K. pneumonia was 23

----------
# Test system: K. pneumonia
QUANTITY MEASURED: MIC (µg/mL)
Unit µg/mL implied. Number only.

compound=O=C(Nc1ccccc1)C(=Cc1cn(-c2ccccc2)nc1-c1ccccc1)c1nc2ccccc2s1 tested_system="K. pneumonia" output_unit=µg/mL result_number=0.0625

Record Cc1ccc(-n2c(N)c(C#N)c(-c3ccccc3)c(-c3nc4ccccc4s3)c2=O)cc1 [11c] / K. pneumonia, MIC recorded as 0.0315

Record "O=C(Cc1nc2ccccc2s1)Nc1ccc(Cl)cc1" / K. pneumonia, MIC recorded as 0.0312

Record "COc1ccc(C=C(C(=O)Nc2ccc(Cl)cc2)c2nc3ccccc3s2)cc1OC" / K. pneumonia, MIC recorded as 0.0625

Record "O=C(Cc1nc2ccccc2s1)Nc1ccccc1" / K. pneumonia, MIC recorded as 0.125

Record "O=C(Nc1ccccc1)C(=Cc1ccc(Cl)cc1)c1nc2ccccc2s1" / K. pneumonia, MIC recorded as 0.125

Record CNC(C)C1CCC(N)C(OC2C(N)CC(N)C(OC3OCC(C)(O)C(NC)C3O)C2O)O1 (centres unmarked) [Gentamicin, reference compound] / K. pneumonia, MIC recorded as 0.0625

Record "O=C(Nc1ccc(Cl)cc1)C(=Cc1ccccc1)c1nc2ccccc2s1" / K. pneumonia, MIC recorded as 0.125

Record COc1ccc(-c2c(C#N)c(N)n(-c3ccc(C)cc3)c(=O)c2-c2nc3ccccc3s2)cc1 [11d] / K. pneumonia, MIC recorded as 0.0625

Record "O=C(Nc1ccccc1)C(=Cc1ccc(OC(=O)c2ccccc2)cc1)c1nc2ccccc2s1" / K. pneumonia, MIC recorded as 0.0312

Record "COc1ccc(C=C(C(=O)Nc2ccc(C)cc2)c2nc3ccccc3s2)cc1" / K. pneumonia, MIC recorded as 0.0312

----------
# System: K. pneumonia
# ASSAY EXPLANATION: Agar diffusion method, inhibition zone diameter
# Assay type: cell-based, Klebsiella pneumonia
# CONDITION DETAILS: Gram-negative
Label 0.0 if IZD K. pneumonia falls below 20 mm; label 1.0 in every other case.

The examples below pair each entry with its known result.
compound="Cc1ccc(NC(=O)C(=Cc2cn(-c3ccccc3)nc2-c2ccccc2)c2nc3ccccc3s2)cc1 [6d]" tested_system="K. pneumonia" class_name=0.0
compound="Cc1ccc(-c2nn(-c3ccccc3)cc2C=C(C(=O)Nc2ccccc2)c2nc3ccccc3s2)cc1 [6b]" tested_system="K. pneumonia" class_name=0.0
compound="O=C(Nc1ccc(Cl)cc1)C(=Cc1ccc(OC(=O)c2ccccc2)cc1)c1nc2ccccc2s1 [4o]" tested_system="K. pneumonia" class_name=0.0

Below: the item to evaluate.
Test whether the compound Cc1ccc(NC(=O)C(=Cc2cn(-c3ccccc3)nc2-c2ccc(C)cc2)c2nc3ccccc3s2)cc1 [6e] records IZD K. pneumonia of 20 mm or higher.
1.0

----------
# Test system: St. aureus
Below, each entry is listed alongside its reported MIC.
Unit µg/mL implied. Number only.

Some compounds with recorded MIC:
compound="O=C(Nc1ccccc1)C(=Cc1ccc(OC(=O)c2ccccc2)cc1)c1nc2ccccc2s1 [4m]" result_number=0.0312
compound="COc1ccc(C=C(C(=O)Nc2ccc(Cl)cc2)c2nc3ccccc3s2)cc1OC [4k]" result_number=0.0625
compound="CC1(C)S[C@@H]2[C@H](NC(=O)[C@H](N)c3ccccc3)C(=O)N2[C@H]1C(=O)O [Ampicillin, reference compound]" result_number=0.0625
compound="O=C(Cc1nc2ccccc2s1)Nc1ccc(Cl)cc1 [2c]" result_number=0.0312

// sample O=C(Cc1nc2ccccc2s1)Nc1ccccc1 [2a] , its MIC was 0.25

----------
# Tested on: A. baumannii
Below, each entry is listed alongside its reported MIC.
Unit µg/mL implied. Number only.

Some molecules with recorded MIC:
molecule="CN(C)c1cc(NC(=O)CNC(C)(C)C)c(O)c2c1C[C@H]1C[C@H]3[C@H](N(C)C)C(O)=C(C(N)=O)C(=O)[C@@]3(O)C(O)=C1C2=O [Tigecycline, reference compound]" result_number=0.0312
molecule=O=C(Cc1nc2ccccc2s1)Nc1ccc(Cl)cc1 result_number=0.0312
molecule=O=C(Nc1ccccc1)C(=Cc1ccc(Cl)cc1)c1nc2ccccc2s1 result_number=0.25
molecule=O=C(Cc1nc2ccccc2s1)Nc1ccccc1 result_number=0.125
molecule=COc1ccc(C=C(C(=O)Nc2ccc(Cl)cc2)c2nc3ccccc3s2)cc1OC result_number=0.0312

// sample "O=C(Nc1ccccc1)C(=Cc1ccc(OC(=O)c2ccccc2)cc1)c1nc2ccccc2s1" , its MIC was 0.0312

// sample CNC(C)C1CCC(N)C(OC2C(N)CC(N)C(OC3OCC(C)(O)C(NC)C3O)C2O)O1 (centres unmarked) [Gentamicin, reference compound] , its MIC was 0.0312

// sample Cc1ccc(-n2c(N)c(C#N)c(-c3ccccc3)c(-c3nc4ccccc4s3)c2=O)cc1 [11c] , its MIC was 0.0315

----------
# Tested on: St. aureus
# ASSAY EXPLANATION: Agar diffusion method, inhibition zone diameter
# Assay type: cell-based, Staphylococcus aureus
# CONDITION DETAILS: Gram-positive
Below, each entry is listed alongside its reported IZD St. aureus.
Unit mm implied. Number only.

Some compounds with recorded IZD St. aureus:
compound=O=C(Cc1nc2ccccc2s1)Nc1ccccc1 quantity_measured="IZD St. aureus" result_number=31
compound=O=C(Nc1ccccc1)C(=Cc1ccc(OC(=O)c2ccccc2)cc1)c1nc2ccccc2s1 quantity_measured="IZD St. aureus" result_number=25
compound=COc1ccc(C=C(C(=O)Nc2ccc(Cl)cc2)c2nc3ccccc3s2)cc1OC quantity_measured="IZD St. aureus" result_number=25
compound=O=C(Nc1ccc(Cl)cc1)C(=Cc1ccccc1)c1nc2ccccc2s1 quantity_measured="IZD St. aureus" result_number=12
compound=COc1ccc(C=C(C(=O)Nc2ccc(C)cc2)c2nc3ccccc3s2)cc1 quantity_measured="IZD St. aureus" result_number=25
compound=Cc1ccc(NC(=O)C(=Cc2cn(-c3ccccc3)nc2-c2ccc(C)cc2)c2nc3ccccc3s2)cc1 quantity_measured="IZD St. aureus" result_number=29
compound=O=C(Cc1nc2ccccc2s1)Nc1ccc(Cl)cc1 quantity_measured="IZD St. aureus" result_number=28
compound="CC1(C)S[C@@H]2[C@H](NC(=O)[C@H](N)c3ccccc3)C(=O)N2[C@H]1C(=O)O [Ampicillin, reference compound]" quantity_measured="IZD St. aureus" result_number=29
compound=O=C(Nc1ccc(Cl)cc1)/C(=C\c1cn(-c2ccccc2)nc1-c1ccc(Cl)cc1)c1nc2ccccc2s1 quantity_measured="IZD St. aureus" result_number=14
compound="COc1ccc(-c2c(C#N)c(N)n(-c3ccc(Cl)cc3)c(=O)c2-c2nc3ccccc3s2)cc1 [11f]" quantity_measured="IZD St. aureus" result_number=20

// sample N#Cc1c(-c2ccccc2)c(-c2nc3ccccc3s2)c(=O)n(-c2ccccc2)c1N [11a] , its IZD St. aureus was 14

----------
# Test system: K. pneumonia
# ASSAY EXPLANATION: Agar diffusion method, inhibition zone diameter
# Type: cell-based, Klebsiella pneumonia
# CONDITION DETAILS: Gram-negative
QUANTITY MEASURED: IZD K. pneumonia
Note: a bare number is incomplete; add the unit.

compound="COc1ccc(-c2c(C#N)c(N)n(-c3ccc(Cl)cc3)c(=O)c2-c2nc3ccccc3s2)cc1 [11f]" quantity_measured="IZD K. pneumonia" result="20 ± 1.1 mm"
compound=O=C(Nc1ccccc1)C(=Cc1ccc(Cl)cc1)c1nc2ccccc2s1 quantity_measured="IZD K. pneumonia" result="20 ± 1 mm"
compound=COc1ccc(C=C(C(=O)Nc2ccc(C)cc2)c2nc3ccccc3s2)cc1 quantity_measured="IZD K. pneumonia" result="25 ± 1.1 mm"
compound="Cc1ccc(-n2c(N)c(C#N)c(-c3ccccc3)c(-c3nc4ccccc4s3)c2=O)cc1 [11c]" quantity_measured="IZD K. pneumonia" result="36 ± 1 mm"

// sample "O=C(Nc1ccccc1)C(=Cc1ccc(OC(=O)c2ccccc2)cc1)c1nc2ccccc2s1" , its IZD K. pneumonia was 35 ± 1.1 mm
